Test system: blood cancer cell lines (e.g. HL-60, Jurkat, Raji, Ramos, Daudi, MOLT-4)
Experiment: Cell based assay, cell viability (CellTiter-Glo), blood cancer cell lines
Conditions: Homo sapiens, MV4-11, blood cancer cell line MV-4-11, 72 hours, read-out: IC50, MV-4-11
Readout type: IC50

Ask: Param item = CC(=O)c1c([S+]([O-])Cc2ccccc2)nc2c(Br)ccc(Cl)c2c1O (stereo not shown) [Compound 4] ; retrieve measured IC50.
Result: 1610 nM

Ask: Param item = CC(=O)c1c([S+]([O-])Cc2nonc2C)[nH]c2c(Br)ccc(Cl)c2c1=O (stereo not shown) [Compound 106] ; retrieve measured IC50.
Result: > 2000 nM

Ask: Param item = CC(=O)c1c([S+]([O-])Cc2ccc(N)nc2)[nH]c2c(Br)ccc(Cl)c2c1=O (stereo not shown) [Compound 100] ; retrieve measured IC50.
Result: > 2000 nM

Ask: Param item = CC(=O)c1c([S+]([O-])Cc2ccc(C#N)s2)[nH]c2c(Br)ccc(Cl)c2c1=O (stereo not shown) [Compound 98] ; retrieve measured IC50.
Result: 1240 nM

Ask: Param item = CC(=O)c1c([S+]([O-])Cc2ccc(I)cc2)[nH]c2c(Cl)ccc(Cl)c2c1=O (stereo not shown) [Compound 83] ; retrieve measured IC50.
Result: > 2000 nM

Ask: Param item = CC(=O)c1c([S+]([O-])Cc2ccc(S(F)(F)(F)(F)F)cc2F)[nH]c2c(Br)ccc(Cl)c2c1=O (stereo not shown) [Compound 69] ; retrieve measured IC50.
Result: 1470 nM

Ask: Param item = CC(=O)c1c(SCc2ccc(Cl)cc2)[nH]c2c(Br)ccc(Cl)c2c1=O [Compound 10] ; retrieve measured IC50.
Result: > 2000 nM

Ask: Param item = CSc1c(C(C)=O)c(=O)c2cc(F)ccc2n1C [Compound 7] ; retrieve measured IC50.
Result: > 2000 nM
